The measurements presented in this section are drawn from paper PMC7564666.

B1: GST-LASP1 (full length LIM and SH3 Protein 1, residues 1–261) [human] / argonaute 2 (Ago2), endogenous [human (endogenous in MDA-MB-231 variants 231S and Bone-Un)] (parent complex)
chain 1: MNPNCARCGKIVYPTEKVNCLDKFWHKACFHCETCKMTLNMKNYKGYEKKPYCNAHYPKQSFTMVADTPENLRLKQQSELQSQVRYKEEFEKNKGKGFSVVADTPELQRIKKTQDQISNIKYHEEFEKSRMGPSGGEGMEPERRDSQDGSSYRRPLEQQQPHHIPTSAPVYQQPQQQPVAQSYGGYKEPAAPVSIQRSAPGGGGKRYRAVYDYSAADEDEVSFQDGDTIVNVQQIDDGWMYGTVERTGDTGMLPANYVEAI
chain 2: not shown

Variants of: B1
Test: GST pull-down, immunoblot; 1 mg of Bone-Un LASP1 KO total lysate; 1.5 nmol of each LASP1 single-mutant protein; parent: 1
Reported ratio to parent is given for each of the following variants.

Some entries whose results are on file:
>  <mutant_label>
chain 1 S146D

>  <ratio to parent>
3.23

$$$$
>  <mutant_label>
chain 1 Y171F

>  <ratio to parent>
0.27

$$$$
>  <mutant_label>
chain 1 S146A

>  <ratio to parent>
4.79

$$$$

Pending variant:
Quick one: ratio to parent of chain 1 Y171D ?
5
